// provenance: patent US11261211B2

Here, each record is paired with measured activity at 10 µM data.
- SYSTEM: α1β2γ2 GABAA receptor (Homo sapiens (Human), UniProt P14867+P47870)
- ASSAY REMARKS: Patch clamp electrophysiology of recombinant α1β2γ2 GABAA receptors in LTK cells
- Format: cell-based
- DETAILS: LTK, 10 μM compound, Qpatch, Ltk cells, GABA EC20 2 μM; read-out: α1β2γ2 GABA Qpatch in Ltk (Efficacy at 10 μm)

COMPOUND	activity at 10 µM
C[C@@]1(O)CC[C@H]2[C@@H](CC[C@@H]3[C@@H]2CC[C@]2(C)[C@@H](C(=O)Cn4nc5ccc(F)cc5n4)CC[C@@H]32)C1 [SB-11]	100 to 500%
COc1cccc2nn(CC(=O)[C@H]3CC[C@H]4[C@@H]5CC[C@@H]6C[C@](C)(O)CC[C@@H]6[C@H]5CC[C@]34C)nc12 [SA-75]	100 to 500%
Cc1ccc2nnn(CC(=O)[C@H]3CC[C@H]4[C@@H]5CC[C@@H]6C[C@](C)(O)CC[C@@H]6[C@H]5CC[C@]34C)c2c1 [SA-42]	100 to 500%
C[C@@]1(O)CC[C@H]2[C@H](CC[C@@H]3[C@@H]2CC[C@]2(C)[C@@H](C(=O)Cn4nc5ccncc5n4)CC[C@@H]32)C1 [SA-11]	> 500%
C[C@]12CC[C@H]3[C@@H](CC[C@@H]4C[C@@](O)(C(F)F)CC[C@@H]43)[C@@H]1CC[C@@H]2C(=O)Cn1nnc2cnccc21 [SA-96]	100 to 500%
C[C@@]1(O)CC[C@H]2[C@H](CC[C@@H]3[C@@H]2CC[C@]2(C)[C@@H](C(=O)Cn4cc5cc(Cl)ncc5n4)CC[C@@H]32)C1 [SA-30]	> 500%

---

- SYSTEM: α1β2γ2 GABAA receptor (Homo sapiens (Human), UniProt P14867+P47870)
- ASSAY REMARKS: Patch clamp electrophysiology of recombinant α1β2γ2 GABAA receptors in LTK cells
- Type: cell-based
- DETAILS: LTK, 10 μM compound, Qpatch, Ltk cells, GABA EC20 2 μM; read-out: α1β2γ2 GABA Qpatch in Ltk (Efficacy at 10 μm)
PARAMETER MEASURED: activity at 10 µM

COMPOUND	OBSERVED
Cn1c(CC(=O)[C@H]2CC[C@H]3[C@@H]4CC[C@@H]5C[C@](C)(O)CC[C@@H]5[C@H]4CC[C@]23C)nc2ccccc21 [SA-105]	> 500%
C[C@@]1(O)CC[C@H]2[C@H](CC[C@@H]3[C@@H]2CC[C@]2(C)[C@@H](C(=O)Cn4nnc5ccccc54)CC[C@@H]32)C1 [SA-1]	> 500%
COC[C@@]1(O)CC[C@H]2[C@@H](CC[C@@H]3[C@@H]2CC[C@]2(C)[C@@H](C(=O)Cn4nc5ccncc5n4)CC[C@@H]32)C1 [SB-44]	> 500%
CCOC[C@@]1(O)CC[C@H]2[C@@H](CC[C@@H]3[C@@H]2CC[C@]2(C)[C@@H](C(=O)Cn4nc5ccc(F)cc5n4)CC[C@@H]32)C1 [SB-60]	10 to 100%
C[C@@]1(O)CC[C@H]2[C@H](CC[C@@H]3[C@@H]2CC[C@]2(C)[C@@H](C(=O)Cn4ncc5cncnc54)CC[C@@H]32)C1 [SA-36]	> 500%
C[C@]12CC[C@H]3[C@@H](CC[C@@H]4C[C@@](O)(C(F)F)CC[C@@H]43)[C@@H]1CC[C@@H]2C(=O)Cn1nc2ccc(F)cc2n1 [SA-104]	100 to 500%
COc1ccc2nn(CC(=O)[C@H]3CC[C@H]4[C@@H]5CC[C@H]6C[C@@](O)(CF)CC[C@@H]6[C@H]5CC[C@]34C)nc2c1 [SG-21]	10 to 100%
C[C@@]1(O)CC[C@H]2[C@H](CC[C@@H]3[C@@H]2CC[C@]2(C)[C@@H](C(=O)Cn4nc5ccc(Cl)cc5n4)CC[C@@H]32)C1 [SA-41]	> 500%
COC[C@@]1(O)CC[C@H]2[C@@H](CC[C@@H]3[C@@H]2CC[C@]2(C)[C@@H](C(=O)Cn4cc5ncccc5n4)CC[C@@H]32)C1 [SB-47]	> 500%
C[C@]12CC[C@H]3[C@@H](CC[C@@H]4C[C@@](O)(CF)CC[C@@H]43)[C@@H]1CC[C@@H]2C(=O)Cn1nnc2ccccc21 [SA-79]	> 500%
COc1ccc2nnn(CC(=O)[C@H]3CC[C@H]4[C@@H]5CC[C@H]6C[C@@](O)(CF)CC[C@@H]6[C@H]5CC[C@]34C)c2c1 [SG-22]	100 to 500%
C[C@@]1(O)CC[C@H]2[C@H](CC[C@@H]3[C@@H]2CC[C@]2(C)[C@@H](C(=O)Cn4nnc5c(F)cccc54)CC[C@@H]32)C1 [SA-64]	100 to 500%
CCOC[C@@]1(O)CC[C@H]2[C@@H](CC[C@@H]3[C@@H]2CC[C@]2(C)[C@@H](C(=O)Cn4cc5ccncc5n4)CC[C@@H]32)C1 [SB-57]	100 to 500%
COC[C@@]1(O)CC[C@H]2[C@H](CC[C@@H]3[C@@H]2CC[C@]2(C)[C@@H](C(=O)Cn4ncc5ccncc54)CC[C@@H]32)C1 [SA-119]	> 500%
C[C@]12CC[C@H]3[C@@H](CC[C@H]4C[C@@](O)(CF)CC[C@@H]43)[C@@H]1CC[C@@H]2C(=O)Cn1nnc2ccncc21 [SB-26]	10 to 100%
C[C@]12CC[C@H]3[C@@H](CC[C@@H]4C[C@@](O)(CF)CC[C@@H]43)[C@@H]1CC[C@@H]2C(=O)Cn1ncc2ncccc21 [SA-84]	100 to 500%
C[C@]12CC[C@H]3[C@@H](CC[C@@H]4C[C@@](O)(CF)CC[C@@H]43)[C@@H]1CC[C@@H]2C(=O)Cn1cc2ccncc2n1 [SA-85]	> 500%
C[C@@]1(O)CC[C@H]2[C@H](CC[C@@H]3[C@@H]2CC[C@]2(C)[C@@H](C(=O)Cn4nc5ccccc5n4)CC[C@@H]32)C1 [SA-2]	100 to 500%
C[C@@]1(O)CC[C@H]2[C@H](CC[C@@H]3[C@@H]2CC[C@]2(C)[C@@H](C(=O)Cn4cc5nccnc5n4)CC[C@@H]32)C1 [SA-28]	100 to 500%
CCOC[C@@]1(O)CC[C@H]2[C@@H](CC[C@@H]3[C@@H]2CC[C@]2(C)[C@@H](C(=O)Cn4ncc5ncccc54)CC[C@@H]32)C1 [SB-54]	100 to 500%
C[C@]12CC[C@H]3[C@@H](CC[C@@H]4C[C@@](O)(C(F)F)CC[C@@H]43)[C@@H]1CC[C@@H]2C(=O)Cn1cc2ccncc2n1 [SA-99]	> 500%
C[C@@]1(O)CC[C@H]2[C@@H](CC[C@@H]3[C@@H]2CC[C@]2(C)[C@@H](C(=O)Cn4nnc5ccccc54)CC[C@@H]32)C1 [SB-1]	100 to 500%
CC[C@@]1(O)CC[C@H]2[C@H](CC[C@@H]3[C@@H]2CC[C@]2(C)[C@@H](C(=O)Cn4nnc5cnccc54)CC[C@@H]32)C1 [SA-112]	100 to 500%
COC[C@@]1(O)CC[C@H]2[C@H](CC[C@@H]3[C@@H]2CC[C@]2(C)[C@@H](C(=O)Cn4nnc5cnccc54)CC[C@@H]32)C1 [SA-123]	100 to 500%
C[C@]12CC[C@H]3[C@@H](CC[C@H]4C[C@@](O)(CF)CC[C@@H]43)[C@@H]1CC[C@@H]2C(=O)Cn1cc2ncccc2n1 [SB-16]	100 to 500%
